biological target: P-glycoprotein (Pgp) purified from MDR CH^RB30 Chinese hamster ovary cells (Cricetulus griseus, UniProt P21448); assay: Quenching of intrinsic Trp fluorescence of purified Pgp by nucleotides, drugs and peptides
Sequence (P21448 whole entry): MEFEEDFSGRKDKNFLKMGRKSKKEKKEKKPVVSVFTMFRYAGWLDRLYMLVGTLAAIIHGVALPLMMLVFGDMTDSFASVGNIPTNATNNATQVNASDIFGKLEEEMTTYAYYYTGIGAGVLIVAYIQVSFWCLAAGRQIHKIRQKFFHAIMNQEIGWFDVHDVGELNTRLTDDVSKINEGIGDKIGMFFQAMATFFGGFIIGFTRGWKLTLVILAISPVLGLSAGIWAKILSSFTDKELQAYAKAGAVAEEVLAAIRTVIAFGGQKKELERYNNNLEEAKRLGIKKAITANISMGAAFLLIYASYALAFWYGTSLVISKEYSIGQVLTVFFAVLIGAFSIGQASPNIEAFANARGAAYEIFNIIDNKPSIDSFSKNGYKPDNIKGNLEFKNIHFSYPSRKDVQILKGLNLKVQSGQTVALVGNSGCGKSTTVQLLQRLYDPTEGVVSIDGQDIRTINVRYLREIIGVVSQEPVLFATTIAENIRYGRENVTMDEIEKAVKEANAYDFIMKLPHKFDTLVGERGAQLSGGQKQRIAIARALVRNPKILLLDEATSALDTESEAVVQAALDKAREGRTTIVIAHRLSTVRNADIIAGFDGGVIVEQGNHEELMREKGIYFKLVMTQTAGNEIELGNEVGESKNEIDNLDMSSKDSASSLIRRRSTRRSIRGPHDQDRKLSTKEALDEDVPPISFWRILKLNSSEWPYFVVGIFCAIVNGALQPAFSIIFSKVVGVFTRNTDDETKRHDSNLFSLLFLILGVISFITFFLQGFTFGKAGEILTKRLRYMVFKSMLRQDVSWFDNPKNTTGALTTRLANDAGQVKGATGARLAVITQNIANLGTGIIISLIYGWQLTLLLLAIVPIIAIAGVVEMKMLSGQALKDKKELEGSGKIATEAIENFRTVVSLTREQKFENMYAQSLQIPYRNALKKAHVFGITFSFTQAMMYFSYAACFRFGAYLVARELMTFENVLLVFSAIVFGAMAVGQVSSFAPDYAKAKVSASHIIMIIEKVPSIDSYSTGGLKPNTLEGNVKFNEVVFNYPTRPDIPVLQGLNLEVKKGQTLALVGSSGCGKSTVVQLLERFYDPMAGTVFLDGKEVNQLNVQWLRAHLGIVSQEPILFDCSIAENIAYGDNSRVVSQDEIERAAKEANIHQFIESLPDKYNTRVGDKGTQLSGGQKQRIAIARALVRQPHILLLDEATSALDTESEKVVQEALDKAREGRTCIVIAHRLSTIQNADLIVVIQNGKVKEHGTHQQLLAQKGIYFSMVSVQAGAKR
pKd: −log10 of the molar value.
Value Kind: pKd

CC[C@]1(O)C[C@@H]2CN(CCc3c([nH]c4ccccc34)[C@@](C(=O)OC)(c3cc4c(cc3OC)N(C)[C@H]3[C@@](O)(C(=O)OC)[C@H](OC(C)=O)[C@]5(CC)C=CCN6CC[C@]43[C@@H]65)C2)C1 [vinblastine] = 6.30
C/C=C/C[C@@H](C)C(=O)[C@H]1C(=O)N[C@@H](C(C)C)C(=O)N(C)CC(=O)N(C)[C@@H](CC(C)C)C(=O)N[C@@H](C(C)C)C(=O)N(C)[C@@H](CC(C)C)C(=O)N[C@@H](C)C(=O)N[C@H](C)C(=O)N(C)[C@@H](CC(C)C)C(=O)N(C)[C@@H](CC(C)C)C(=O)N(C)[C@@H](C(C)C)C(=O)N1C [PSC833] = 7.09

Cited source for all entries: patent US20040029100A1
